- Type: in vivo, human
- recorded-conditions: human, plasma, 50 mg
assay-readout: Tmax

                              sample_smiles  readout_value
0  CN[C@H]1CC[C@@H](c2ccc(Cl)c(Cl)c2)c2ccccc21         5.06 h

---

- Assay type: in vivo, human
- recorded-conditions: human, plasma, 400 mg/day, Cmax, arithmetic mean ± SD, Day 14, sertraline 400 mg/day multiple dose
assay-readout: Cmax (ng/mL)

>>> print(df.to_string())
                                   molecule  assay_readout  unit_tag  readout_value
0  CN[C@H]1CC[C@@H](c2ccc(Cl)c(Cl)c2)c2ccccc21 [sertraline]           Cmax     ng/mL            246

---

- Format: in vivo, human
- recorded-conditions: human, plasma, 400 mg/day, AUClast, arithmetic mean ± SD, Day 14, sertraline 400 mg/day multiple dose
assay-readout: AUC(0-t) (ng·h/mL)

>>> df
                              sample_smiles  unit_tag  readout_value
0  CN[C@H]1CC[C@@H](c2ccc(Cl)c(Cl)c2)c2ccccc21   ng·h/mL           9190

---

- Format: in vivo, human
- recorded-conditions: human, plasma, 400 mg/day, AUC24, geometric mean (%CV), Day 14, sertraline 400 mg/day multiple dose
assay-readout: AUC (ng·h/mL)

                              sample_smiles  readout_value
0  CN[C@H]1CC[C@@H](c2ccc(Cl)c(Cl)c2)c2ccccc21           4390

---

- Type: in vivo, human
- recorded-conditions: human, plasma, 50 mg, Cmax, geometric mean (%CV), Day 1, sertraline 50 mg single dose, plasma, healthy subjects
assay-readout: Cmax (ng/mL)

                              sample_smiles  assay_readout  readout_value
0  CN[C@H]1CC[C@@H](c2ccc(Cl)c(Cl)c2)c2ccccc21           Cmax           11.4

---

- Assay type: in vivo, human
- recorded-conditions: human, plasma, 400 mg/day, AUClast, geometric mean (%CV), Day 14, sertraline 400 mg/day multiple dose
assay-readout: AUC(0-t) (ng·h/mL)

                                   compound  readout_value
0  CN[C@H]1CC[C@@H](c2ccc(Cl)c(Cl)c2)c2ccccc21 [sertraline]           8490

---

- Format: in vivo, human
- recorded-conditions: human, plasma, 400 mg/day, AUC24, arithmetic mean ± SD, Day 14, sertraline 400 mg/day multiple dose
assay-readout: AUC (ng·h/mL)

                              sample_smiles  readout_value
0  CN[C@H]1CC[C@@H](c2ccc(Cl)c(Cl)c2)c2ccccc21           4650
